system: M14 melanoma; experiment: NCI tumour cell line growth inhibition, 48 h
Property measured: TGI (µM)
Numbers only, in µM.

| Compound | Unit spec | Assay result |
| --- | --- | --- |
| C=C1CC/C=C(\C)CCC[C@H](C)[C@@H](O)[C@@H]2OC(=O)C(=C)[C@@H]2C[C@H]1O | µM | 28.4 |
| COc1cc(/C=C/C(=O)c2cccc(-n3cc(-c4ccc(Cl)cc4)[nH]c3=O)c2)ccc1O | µM | 15.2 |

Respectfully, I request TGI for each entry included below.
1. COc1ccc(-c2nc3ncccn3c2-c2ccc(SC)cc2)cc1
2. NCCCn1c2c(c3ccc([N+](=O)[O-])cc3c1=O)C(=O)c1ccccc1-2
3. COC12C(COC(N)=O)C3=C(C(=O)C(C)=C(N)C3=O)N1CC1C2N1C (configuration not stated)
4. O=C1c2ccccc2C(=O)c2c1nc1ccccc1c2-c1cncc(-c2c3c(nc4ccccc24)C(=O)c2ccccc2C3=O)c1
5. COC(=O)/C=C\C(C#N)(C#N)N=Cc1cc(Br)cs1

[12.2, 1.06, 22.7, 32.4, 6.48]

###

tested on: BT-549 breast; assay: NCI tumour cell line growth inhibition, 48 h
Categorize each record by its TGI using Low = under 7 µM, Mid = from 7 µM up to 40 µM, High = 40 µM and over

# example entries with known answers
| Compound | Experimental system | Category |
| --- | --- | --- |
| C/C(=N\NC(=S)N1CCCCCC1)c1ccccn1 | BT-549 breast | Low |
| CNCCCn1c2ccccc2c2c3c(c(-c4ccsc4)cc21)C(=O)NC3=O | BT-549 breast | Mid |
| COc1ccc(-c2cc(/C=C/C(=O)c3ccc(OC)c(OC)c3)[nH]n2)cc1 | BT-549 breast | Low |
| CCc1ccc(/C=C/c2ccc(O)c3ncccc23)[n+](C)c1 | BT-549 breast | High |

// bin(item) where item = Cc1cc2cc3c(=O)[nH]c(=O)[nH]c3nc2cc1C
High

Record CC(C)=CCc1cc2c(cc1O)OC[C@H]1c3cc4c(cc3O[C@@H]21)OCO4 — which class?
High

Input Cc1ncc([N+](=O)[O-])n1CCNCCCCn1ccnc1[N+](=O)[O-] ; output its category
High

Lab note: which band did CC1C=CN(N(C)C)C2=C1C(=O)c1cnccc1C2=O (stereo not given) land in?
Low

Into which category would you place O=C(/C=C/C=C/c1ccccc1)c1ccccc1 ?
High

For this compound, which bin applies? Cc1cc(N(CCCNc2ccnc3cc(Cl)ccc23)Cc2ccc3c(c2)OCO3)nc(N2CCOCC2)n1
Mid

###

system: SK-MEL-5 melanoma; test: NCI tumour cell line growth inhibition, 48 h
Property measured: TGI

Some compounds with known TGI results, for comparison:
| Compound | TGI |
| --- | --- |
| CCOC(=O)/C=C(\C(=O)OCC)n1ccc(=O)n(Cc2cn(CCCCOC(C)=O)nn2)c1=O | > 54.2 µM |
| O=C(Nc1cc(C(F)(F)F)ccc1Cl)c1cccc(NC2=C(Cl)C(=O)N(Cc3ccccc3)C2=O)c1 | > 100 µM |
| CC1(C)OC[C@@H]([C@H](O)C2C=CC(=O)S2)O1 (stereo partly drawn) | 45.7 µM |
| Nc1ccn([C@H]2CO[C@@H](CO)[C@@H]2O)c(=O)n1 | > 100 µM |
| COc1ccc(N=NC(=O)NC(CC(C)C)C(=O)NC(C)C(=O)O)cc1 (stereo not drawn) | > 100 µM |

Provide the reported TGI of each entry below, same order.
1. COC(=O)c1s/c(=N\C(=S)N(C)C)n(-c2ccc(Cl)cc2)c1C(=O)OC
2. Cc1cc(/N=C/c2ccc(F)cc2)n(-c2ccccc2)n1
3. Cn1c2ccccc2c(=O)c2cccc(C(=O)NC(CS)C(=O)O)c21 (stereo not drawn)
4. Cc1cc(N(CCCNc2ccnc3cc(Cl)ccc23)Cc2ccc3c(c2)OCO3)nc(N2CCOCC2)n1

> 10 µM
> 100 µM
> 100 µM
0.309 µM

Report TGI for every entry below.
1. CCOC(=O)c1nc2cc(F)c(N3CCOCC3)cc2[nH]c1=O
2. CCCCCCCN=C(N)c1ccc(N2CCN(c3ccc(C(N)=NCCCCCCC)cc3)CC2)cc1
3. Cc1ccc(NC(=O)CCc2nnc(N)o2)cc1
4. Clc1nc(Cl)nc(Nc2cccc3ccccc23)n1

> 100 µM
0.0141 µM
> 100 µM
> 100 µM
